Source: the supplement of paper PMC6555819

# Test system: RXRa homodimer (NR concentration 180 nM)
# experiment-summary: PBM binding z-score (relative to random genomic background probes); higher = stronger binding; sequences stand for … in GC…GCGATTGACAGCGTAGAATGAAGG
observable: PBM binding z-score
The reply should be a number, written without any unit.

ACAGACCGGTGAGTGAAGGTAACTCAGCTGGACG :: -0.109
GCTTACGGGTCAAAGGTTATATCATGAATAGAAT :: 9.55
GCTAGAAGGCCATTTGGGTCACTCAATGACGGGC :: 1.05

Ask: Name the reported PBM binding z-score value associated with the sequence `CCAGACAGGTGAAAGGTGACTCAGTCTGGTACGC`
Result: 3.18

Ask: # iterate: `CCTTACGGGTCACTGACAGGTTGTAGCATTTGGA`
Result: 4.67

Ask: Now give it for `CTACCATGGTGAACAAGGTCGTTGATTACTATTC` too.
Result: 0.913

* * *

# Test system: PPARa:RXRa (NR concentration 270 nM, RXRa partner concentration 90 nM)
# experiment-summary: PBM binding z-score (relative to random genomic background probes); higher = stronger binding; sequences stand for … in GC…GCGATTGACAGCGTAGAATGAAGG
# if value of PBM binding z-score reaches 3, tag YES; if it stays below, tag NO

Answered cases to consult:
TCTAATAGTTGAAGGGCAACCGACGAGTCCGTTT :: NO
ATCGAAAGGTCGTGAGCTGAGTATACAGAAAGGC :: YES
CAGCCTAGGTAAGGGCCAGTATAGGAGGAACGTT :: NO
CCTGCTAGGTCAATGGTCAACTAAAGCAGCTCGC :: YES
AGAATGAGGTTATACGAAGATCAGGGAAGAAAGT :: YES

Ask: For this sequence, is measured PBM binding z-score 3 or higher? `GCTGCTAGGTCAACTGATGGTCAGCTACAGCTCG`
Result: YES

* * *

# System: PPARa:RXRa (NR concentration 270 nM, RXRa partner concentration 90 nM)
# experiment-summary: PBM binding z-score (relative to random genomic background probes); higher = stronger binding; sequences stand for … in GC…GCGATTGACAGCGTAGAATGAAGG
Binary classification by PBM binding z-score, with 2 as an inclusive lower bound for yes (1); all other cases are no (0).

CAAACTAGGTCCCAGAGGTCAAAGTCCGTGCGTA :: yes (1)
TTACCAAGGCGAAAGGTCGTTGATGCACGCCTTG :: yes (1)
GATACAGGGTCAGCTAGAGGCCAGAGCATGGAAA :: yes (1)
TTACCAAGGTGAGCTAAGGTCGTTGATCCAACTC :: no (0)
TCATATAGGTAAGGGTGAAAGTCGAACGATATGA :: yes (1)
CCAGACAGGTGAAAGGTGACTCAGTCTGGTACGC :: yes (1)

Ask: Does the sequence `GCTATTAGTTGAAAGGGCATCCGAATGATTCTCG` have recorded PBM binding z-score that is 2 or more?
Result: yes (1)

Ask: Input `ATCGAAAGGTCGAGGTGGGTATAGAGAAAGGGAA`
Result: yes (1)

Ask: Item: `CGTCCAAGGTTAATGCTAGGTCAGTGAAAGCATT`
Result: yes (1)

Ask: Same again, this time with `TCTAGCAGGCCAGAGGGACACTCAAGAGGTACGG`
Result: no (0)

Ask: Try `CGAACGAGGGCAGGAGTTGATAGCAAATGCCGAT` next.
Result: no (0)

Ask: Follow-up entry: `GCAGACACGTGAAACGCAGGTAACTCAGGGTGGC`
Result: no (0)

Ask: Repeat with `TCGAGTCGGTTAGGGGCATTCAGAATGGCGTCGA`
Result: no (0)

Ask: What would you report for `CTCGAAAGGTCGGTTGAGGTGAGTATTCGGATAA` ?
Result: yes (1)

* * *

# System: RARg homodimer (NR concentration 270 nM)
# experiment-summary: PBM binding z-score (relative to random genomic background probes); higher = stronger binding; sequences stand for … in GC…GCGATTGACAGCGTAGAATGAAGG
observable: PBM binding z-score
Form: value (number only, do not type unit).

Sample records with PBM binding z-score:
CCTACTGGGCCAATGGTCATTGATTCCAATGCTC :: 0.182
CCTATCAGGCCAGGGTCACTCAAGCATTTCGCTT :: 2.62
TCTGCTAGGTCAACGCTGGTCAGCTAATCTGCTA :: 5.26
ATATGTAGGTTATCGTGTCATTCAGTTTGCGCAT :: 0.988
ACTAGCTGGTCAGCTGAGGTCACACACAATTCGG :: 4.18

Ask: For the sequence `CAGCCTAGGTCGGGGCCAGTATAGGAGGAACGTT` , what PBM binding z-score is on record?
Result: 0.842

Ask: Further, for `TAGGCTAGGTCATTCAGGGGCCAGTATAGAAAGC` ?
Result: 4.85

Ask: // same read-out, input: `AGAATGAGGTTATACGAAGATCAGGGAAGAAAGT`
Result: 1

Ask: Can you check `CTGACTGGGGCAGAAAGGTTACCATACCATCCGG` next?
Result: 1.66

* * *

# Test system: RARa homodimer (NR concentration 270 nM)
# experiment-summary: PBM binding z-score (relative to random genomic background probes); higher = stronger binding; sequences stand for … in GC…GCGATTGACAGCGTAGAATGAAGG
observable: PBM binding z-score
# respond with the number and nothing more

As a guide, the following entries are already answered.
TCTTGTAGATCAACAGGAGGTTAAGGAAGATCGA :: 0.0704
CGTCGAAGGTCAAAGGTCAGTGAAGAGATGACGG :: 2.42
GCTCGGAGGACACGGTCAGAGCTTTGTCCGTAGA :: -1.26
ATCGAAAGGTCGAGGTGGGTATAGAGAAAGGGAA :: 1.9
TAGCCTAGGTCAATGGGCCAGTATAGTACGCATC :: 0.0956
CATAGCAGGCCAATCTGGGTCACTCAAGGCTTGA :: -0.301
ACTATTAGTTGACACGAGGGCAACCGATAGGTTG :: 0.708
ATCTCTAGGTAAAGATAGTGCAGTGAATGCAAAT :: 0.661

Ask: Record request: PBM binding z-score value, item `CCTATTAGTTGACCATAAGGGCAACGGAAGCTCG`
Result: 1.45

Ask: Same question, `ATAAGTAGGTTAAGGGTCATTCAGGTTGGTTCGC` this time
Result: 3

Ask: Next sequence: `GCTAGTTGGTCAGTAAAAGGTCTCACACCGGTCG`
Result: -0.00415

Ask: Record: `ATATGTAGGTTACATCAGGGTCATTCAGGCTATG`
Result: 1.01

Ask: // next record `CCAGACATGTGAAAGGTAACTCAGTCTGGTACGC`
Result: 0.138

Ask: Same question, `ATATGTATGTTATCGGGTCATTCAGTTTGCGCAT` this time
Result: 1.05

Ask: Here is the next sequence: `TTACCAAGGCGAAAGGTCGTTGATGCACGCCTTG`
Result: 0.25

Ask: Moving on to the next sequence: `GATACAGGGTCAGCTAGAGGCCAGAGAATGGAAA`
Result: 0.734

Ask: What would you report for `ACTTACGGGCCAACGAGGTTATAGCACGCGTATA` ?
Result: 0.0529

Ask: Please answer likewise for `CAGCCTGGGTCAGGGCCAGTATAGGAGGAACGTT`
Result: -0.125

Ask: Now give it for `TATACAGGGACAAAGGCCAGAGTACGAATGTCGA` too.
Result: 0.492

Ask: Cool, now `CGTCAAAGTTCAAGTAAGGTAACGTAAAGCACGC`
Result: 1.99

Ask: Now the same for `CATCCAAGGTCAATGCTAGGTCAGTGAAAGCATT`
Result: 2.23

* * *

# Tested on: VDR:RXRa (NR concentration 270 nM, RXRa partner concentration 90 nM)
# experiment-summary: PBM binding z-score (relative to random genomic background probes); higher = stronger binding; sequences stand for … in GC…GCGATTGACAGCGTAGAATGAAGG
observable: PBM binding z-score
Keep the answer to the number alone.

Below: 3 sequences and their reported PBM binding z-score.
TGAATGAGGTTAAAGATCAAGGAACGTGGCGTCG :: 2.09
GCTTGTAGATCAAGATTAAGAAAGACTAAGCTAA :: -0.528
CCTCGGAGGCCAACAGGAGGTCAGAGCTGCCAGA :: 2.07

Ask: Could you tell me which PBM binding z-score is on file for `CCTATTAGTTGACCATAAGGGCAACAGAAGCTCG` ?
Result: 0.519

Ask: Quick one: `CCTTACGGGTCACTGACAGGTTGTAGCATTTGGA`
Result: 3.34

Ask: Now this one: `CCTACTGGGCCATTCAGATGTCATTGATCATATG`
Result: -0.54

Ask: What about `AAAGACAGGTGATGAAGGTAACTCAGGCTATCAT` ?
Result: 0.521

Ask: Request: `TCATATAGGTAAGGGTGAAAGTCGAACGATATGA`
Result: 0.991

Ask: What do you have for `ATACCAAGGTGATCGTGAGCTCGTTGATACTAAC` ?
Result: -0.0163

Ask: Now this one: `CCTTACGGGTCAAGTTTATAGCACGGGTGGTACG`
Result: 3.9

Ask: Would you mind doing `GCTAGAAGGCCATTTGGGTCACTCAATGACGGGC` as well?
Result: 1.82

Ask: Next entry: `ATAAGTAGGTTATCGGGTCATTCAGTTTGCGCAT`
Result: 5.16

Ask: Item: `CCTACTGGGCCAAGGGTCATTGATTCCAATGCTC`
Result: 3.45
